assay: Steady state volume of distribution (Vsss) was determined; type: ADME, organism-based; settings: in vivo; read-out: Vsss
Give Vd for every item shown.
Give bare numbers, in L/kg.

// solved cases for Vd follow
CCCC[C@H](NC(=O)OC(C(C)C)C(C)C)C(=O)C(=O)N[C@H]1CCCNC1=O | 1.6
CCCC[C@H](NC(=O)OC(C(C)C)C(C)C)C(=O)C(=O)NCc1cncs1 | 1.3
CCCC[C@H](NC(=O)OC(C(C)C)C(C)C)C(=O)C(=O)N[C@H](C)c1ccccc1 | 1.9
CCCC[C@H](NC(=O)OC(C(C)C)C(C)C)C(=O)C(=O)NCc1nnco1 | 0.98
CNC(=O)NCCCC[C@H](NC(=O)OC(C(C)C)C(C)C)C(=O)C(=O)N[C@H](C)c1ccccc1 | 1.5
CCCC[C@H](NC(=O)OC(C(C)C)C(C)C)C(=O)C(=O)NCc1ccncc1 | 0.09

Provide each entry's Vd from the list below.
1. CCCC[C@H](NC(=O)OC(C(C)C)C(C)C)C(=O)C(=O)NCc1ccccn1
2. CCCC[C@H](NC(=O)OC(C(C)C)C(C)C)C(=O)C(=O)NCc1ccno1

1. 0.24
2. 1.2

* * *

Give clearance for every item shown.
test: Tested for the total clearance of the compound; format: ADME, organism-based; conditions: in vivo
Numbers only, in mL/min/kg.

// solved cases for clearance follow
CCCC[C@H](NC(=O)OC(C(C)C)C(C)C)C(=O)C(=O)N[C@H]1CCCNC1=O | 44
CCCC[C@H](NC(=O)OC(C(C)C)C(C)C)C(=O)C(=O)NCc1cncs1 | 28
CCCC[C@H](NC(=O)OC(C(C)C)C(C)C)C(=O)C(=O)NCc1nnco1 | 33
CCCC[C@H](NC(=O)OC(C(C)C)C(C)C)C(=O)C(=O)NCc1ccno1 | 29
CCCC[C@H](NC(=O)OC(C(C)C)C(C)C)C(=O)C(=O)NCc1ccccn1 | 5.2
CCCC[C@H](NC(=O)OC(C(C)C)C(C)C)C(=O)C(=O)NCc1ccncc1 | 7.1
CNC(=O)NCCCC[C@H](NC(=O)OC(C(C)C)C(C)C)C(=O)C(=O)N[C@H](C)c1ccccc1 | 24

Given the entry CCCC[C@H](NC(=O)OC(C(C)C)C(C)C)C(=O)C(=O)N[C@H](C)c1ccccc1 , report its measured clearance.
8.7

* * *

Give logP for every item shown.
experiment: Partition coefficient (logP); type: physicochemical; settings: octanol/water
Give bare numbers.

// solved cases for logP follow
CCCC[C@H](NC(=O)OC(C(C)C)C(C)C)C(=O)C(=O)N[C@H](C)c1ccccc1 | 7.3
CCCC[C@H](NC(=O)OC(C(C)C)C(C)C)C(=O)C(=O)NCc1nnco1 | 3.4
CCCC[C@H](NC(=O)OC(C(C)C)C(C)C)C(=O)C(=O)NCc1cncs1 | 5.3
CCCC[C@H](NC(=O)OC(C(C)C)C(C)C)C(=O)C(=O)NCc1ccno1 | 5

Provide each entry's logP from the list below.
1. CCCC[C@H](NC(=O)OC(C(C)C)C(C)C)C(=O)C(=O)N[C@H]1CCCNC1=O
2. CNC(=O)NCCCC[C@H](NC(=O)OC(C(C)C)C(C)C)C(=O)C(=O)N[C@H](C)c1ccccc1

1: 4.4; 2: 5.5

* * *

test: Tested for iv terminal half-life dosed as a solution in male Han Wistar rats; format: ADME, organism-based; conditions: rat, in vivo
Give log10 of half-life for every item shown.
Annotation: log10 of half-life, h basis.

Provide each entry's log10 of half-life from the list below.
1. CCCC[C@H](NC(=O)OC(C(C)C)C(C)C)C(=O)C(=O)NCc1ccno1
2. CCCC[C@H](NC(=O)OC(C(C)C)C(C)C)C(=O)C(=O)NCc1ccccn1
3. CCCC[C@H](NC(=O)OC(C(C)C)C(C)C)C(=O)C(=O)NCc1ccncc1
4. CCCC[C@H](NC(=O)OC(C(C)C)C(C)C)C(=O)C(=O)NCc1cncs1
5. CCCC[C@H](NC(=O)OC(C(C)C)C(C)C)C(=O)C(=O)N[C@H]1CCCNC1=O
6. CNC(=O)NCCCC[C@H](NC(=O)OC(C(C)C)C(C)C)C(=O)C(=O)N[C@H](C)c1ccccc1

1: -0.06; 2: 0.11; 3: 0.60; 4: 0.40; 5: 0.56; 6: 0.64

Given the entry CCCC[C@H](NC(=O)OC(C(C)C)C(C)C)C(=O)C(=O)NCc1nnco1 , report its measured log10 of half-life.
-0.46
